Values were extracted from patent EP2719696A1.

Measured IC50, listed per entry for reference.
Test system: A375
Assay info: MTT proliferation / cytotoxicity assay
Type: cell-based, human
Experimental setup: Homo sapiens, A-375, 72 h

Some compounds with recorded IC50:
- OCCN1CCC(c2ccnc(Nc3ncc(-c4ccccc4F)s3)c2)CC1: > 1 µM
- OCCN1CCC(c2ccnc(Nc3ncc(-c4ccc(F)cc4)s3)c2)CC1: > 1 µM
- CC(C)(C)Cc1cnc(Nc2cccc(C3CCN(C(=O)C(C)(C)N)CC3)n2)s1: > 1 µM

// query Check the records and state IC50 for CC(=O)N1CCC(Cc2ccnc(Nc3ncc(-c4ccc(F)cc4)s3)c2)CC1
// result > 1 µM

// query Kindly indicate its recorded IC50. Item: CN1CCOCC(Cc2ccnc(Nc3ncc(-c4ccc(F)cc4)s3)c2)C1 (stereo not shown)
// result > 1 µM

* * *

Assayed target: cKIT (Homo sapiens, UniProt P10721)
Sequence (P10721 26-976): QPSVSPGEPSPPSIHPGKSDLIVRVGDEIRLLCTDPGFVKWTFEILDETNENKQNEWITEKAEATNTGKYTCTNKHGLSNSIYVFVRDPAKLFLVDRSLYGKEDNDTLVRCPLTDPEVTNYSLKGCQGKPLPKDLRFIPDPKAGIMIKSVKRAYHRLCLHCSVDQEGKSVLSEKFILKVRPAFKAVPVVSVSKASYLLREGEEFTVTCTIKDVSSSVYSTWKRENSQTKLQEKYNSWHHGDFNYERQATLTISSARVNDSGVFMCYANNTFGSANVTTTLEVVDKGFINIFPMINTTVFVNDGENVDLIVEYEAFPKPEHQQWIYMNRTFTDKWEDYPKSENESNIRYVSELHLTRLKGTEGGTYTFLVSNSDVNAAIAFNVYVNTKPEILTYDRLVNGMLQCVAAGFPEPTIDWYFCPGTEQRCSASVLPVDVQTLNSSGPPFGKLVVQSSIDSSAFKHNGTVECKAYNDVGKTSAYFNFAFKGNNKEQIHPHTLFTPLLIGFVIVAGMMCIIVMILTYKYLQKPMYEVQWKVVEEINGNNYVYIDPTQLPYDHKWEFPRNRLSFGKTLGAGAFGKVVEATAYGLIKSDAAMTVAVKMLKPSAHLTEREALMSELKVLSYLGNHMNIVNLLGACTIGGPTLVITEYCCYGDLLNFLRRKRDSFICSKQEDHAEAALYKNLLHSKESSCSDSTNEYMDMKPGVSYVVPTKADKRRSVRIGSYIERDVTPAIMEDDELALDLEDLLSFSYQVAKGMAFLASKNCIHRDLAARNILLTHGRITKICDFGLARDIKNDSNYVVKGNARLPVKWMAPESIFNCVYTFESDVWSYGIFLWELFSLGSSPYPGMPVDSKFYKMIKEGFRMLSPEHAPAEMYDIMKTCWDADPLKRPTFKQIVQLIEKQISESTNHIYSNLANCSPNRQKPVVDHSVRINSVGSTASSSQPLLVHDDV
Assay info: Kinase inhibition assay (ELISA)
Assay type: biochemical
Experimental setup: 60 µM ATP
Reported metric: IC50

Solved cases below.
- OCCN1CCC(c2ccnc(Nc3ncc(-c4cccc(F)c4)s3)c2)CC1 [Example 037]: < 10 nM
- CN(C)CC1(c2cccc(Nc3ncc(-c4ccccc4)s3)n2)CCN(CCO)CC1 [Example 043]: > 10000 nM
- c1ccc(-c2cnc(Nc3cc(C4CCCNC4)ccn3)s2)cc1 (stereo not drawn) [Example 028]: > 100 nM

// query Identify IC50 associated with the molecule OCCN1CCC(c2ccnc(Nc3ncc(CC(F)(F)F)s3)c2)CC1 [Example 040]
// result > 100 nM

// query Check the records and state IC50 for OCCN1CCC(c2cncc(Nc3ncc(-c4ccccc4)s3)n2)CC1 [Example 030]
// result > 100 nM

// query Return reported IC50. Input molecule: COC(=O)C1CC(Cc2ccnc(Nc3ncc(-c4ccccc4)s3)c2)CC1N (stereo not drawn) [Example 023]
// result < 10 nM

// query Item CC(C)(C)Cc1cnc(Nc2cccc(C3CCN(C(=O)C(C)(C)N)CC3)n2)s1 [Example 047] : provide IC50
// result > 1000 nM

* * *

Assayed target: VEGFR-2 (Homo sapiens, UniProt P35968)
Sequence (P35968 20-1356, species assumed): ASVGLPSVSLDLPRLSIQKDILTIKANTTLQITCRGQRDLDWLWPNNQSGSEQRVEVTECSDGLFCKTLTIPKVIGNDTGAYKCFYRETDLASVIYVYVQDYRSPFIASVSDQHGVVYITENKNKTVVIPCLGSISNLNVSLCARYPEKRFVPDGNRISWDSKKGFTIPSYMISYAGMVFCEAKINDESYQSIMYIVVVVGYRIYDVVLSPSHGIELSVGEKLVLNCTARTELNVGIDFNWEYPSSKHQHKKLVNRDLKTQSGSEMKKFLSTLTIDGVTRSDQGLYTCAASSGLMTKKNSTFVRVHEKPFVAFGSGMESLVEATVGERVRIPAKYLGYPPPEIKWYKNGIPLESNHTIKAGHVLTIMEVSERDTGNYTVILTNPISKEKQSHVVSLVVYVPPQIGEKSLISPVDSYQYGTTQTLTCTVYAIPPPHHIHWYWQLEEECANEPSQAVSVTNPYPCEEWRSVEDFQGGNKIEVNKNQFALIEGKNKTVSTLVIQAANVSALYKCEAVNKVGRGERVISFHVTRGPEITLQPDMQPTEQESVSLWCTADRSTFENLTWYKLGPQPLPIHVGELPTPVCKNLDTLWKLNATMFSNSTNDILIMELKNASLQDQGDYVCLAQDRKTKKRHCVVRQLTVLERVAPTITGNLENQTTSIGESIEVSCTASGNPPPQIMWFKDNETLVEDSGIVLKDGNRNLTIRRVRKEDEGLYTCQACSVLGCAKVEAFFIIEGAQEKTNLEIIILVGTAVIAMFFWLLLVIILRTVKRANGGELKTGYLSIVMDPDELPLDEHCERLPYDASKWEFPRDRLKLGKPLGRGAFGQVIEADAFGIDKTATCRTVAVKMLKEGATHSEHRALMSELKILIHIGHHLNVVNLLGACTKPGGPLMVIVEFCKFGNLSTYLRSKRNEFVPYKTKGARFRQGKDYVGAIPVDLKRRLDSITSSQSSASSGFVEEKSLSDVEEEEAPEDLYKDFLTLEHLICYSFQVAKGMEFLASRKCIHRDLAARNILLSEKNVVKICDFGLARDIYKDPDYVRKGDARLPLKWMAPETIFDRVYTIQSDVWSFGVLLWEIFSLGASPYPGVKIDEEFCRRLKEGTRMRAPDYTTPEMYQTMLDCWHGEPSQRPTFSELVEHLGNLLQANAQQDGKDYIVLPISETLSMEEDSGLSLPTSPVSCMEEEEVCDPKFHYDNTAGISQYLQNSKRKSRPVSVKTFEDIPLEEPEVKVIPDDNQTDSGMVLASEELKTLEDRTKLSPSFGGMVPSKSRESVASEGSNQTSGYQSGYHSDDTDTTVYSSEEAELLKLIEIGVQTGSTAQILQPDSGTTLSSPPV
Assay info: Kinase inhibition assay (ELISA)
Type: biochemical
Experimental setup: 1.5 µM ATP
Reported metric: IC50

• c1ccc(-c2cnc(Nc3cc(C4CCCN4)ccn3)s2)cc1 (stereo not drawn) [Example 027] = > 10 nM
• c1ccc(-c2cnc(Nc3cc(CCC4CCCN4)ccn3)s2)cc1 (stereo not drawn) [Example 015] = > 10 nM
• Fc1ccc(-c2cnc(Nc3cc(CC4CCC5CNCC54)ccn3)s2)cc1 (stereo not drawn) [Example 018] = > 10 nM
• O=C(Nc1ccccc1Cl)c1cnc(Nc2cc(C3CCN(CCO)CC3)ccn2)s1 [Example 044] = > 100 nM
• Fc1ccc(-c2cnc(Nc3cc(CC4CCCC5CNCC54)ccn3)s2)cc1 (stereo not drawn) [Example 017] = > 10 nM
• c1ccc(-c2cnc(Nc3cc(CC4CCNC4)ccn3)s2)cc1 (stereo not drawn) [Example 014] = > 10 nM
• CN1CCCC(Cc2cccc(Nc3ncc(-c4ccc(F)cc4)s3)n2)CC1 (stereo not drawn) [Example 008] = > 1000 nM
• CNC1CCC(Cc2ccnc(Nc3ncc(-c4ccc(F)cc4)s3)c2)CC1 (stereo not drawn) [Example 016] = > 10 nM
• c1ccc(-c2cnc(Nc3cccc(CC4CC5CCC(C4)N5)n3)s2)cc1 (stereo not drawn) [Example 022] = > 100 nM
• CN(C)CC1(c2cccc(Nc3ncc(-c4ccccc4)s3)n2)CCN(CCO)CC1 [Example 043] = > 10000 nM

// query Note IC50 for the compound shown: Fc1ccc(-c2cnc(Nc3cccc(CC4CCC5CNCC54)n3)s2)cc1 (stereo not drawn) [Example 020]
// result > 100 nM

// query Give the reported IC50 for this compound. Fc1ccc(-c2cnc(Nc3cc(CC4CNCCOC4)ccn3)s2)cc1 (stereo not drawn) [Example 009]
// result > 10 nM

// query Give reported IC50 value for OCCN1CCC(c2ccnc(Nc3ncc(-c4cc(F)cc(F)c4)s3)c2)CC1 [Example 039]
// result > 10 nM

// query Return IC50 (reported value) for this compound: OCCN1CCC(c2ccnc(Nc3ncc(/C=C/c4ccccc4)s3)c2)CC1 [Example 048]
// result > 100 nM

// query Return reported IC50. Input compound: OCCN1CCC(c2cccc(Nc3ncc(-c4ccnc(Cl)c4)s3)n2)CC1 [Example 046]
// result > 100 nM

// query Give the reported value of IC50 for this record: OCCN1CCC(c2cc(Nc3ncc(-c4ccccc4)s3)ccn2)CC1 [Example 033]
// result > 100 nM

// query Give a short answer stating reported IC50 for Cc1nc(Nc2ncc(-c3ccccc3)s2)cc(C2CCN(C(=O)C(C)(C)N)CC2)n1 [Example 031] .
// result > 10 nM

// query Please supply the value of reported IC50 for the item Cc1cc(Nc2ncc(-c3ccccc3)s2)nc(C2CCN(CCO)CC2)n1 [Example 029]
// result > 100 nM
